Reported IC50 for target or system rhCatC (Cathepsin C) (Homo sapiens, UniProt P53634), by entry.

The following molecules have reported results that may help.
C#CCN1CCN(c2ccc(Nc3ccc(N4CCCCC4)c(Oc4ccc(C)c(NC(=O)C=C)c4)n3)c(OC)c2)CC1
3 to 300 nM
C=CC(=O)Nc1cc(Oc2nc(Nc3ccc(N4CCC(N(C)C)CC4)cn3)ccc2N2CCCCC2)ccc1C
300 to 30000 nM
C=CC(=O)Nc1cc(Oc2cccc(Nc3ccc(N4CCN(C)CC4)cc3OC)n2)ccc1C(F)(F)F
3 to 300 nM
C=CC(=O)Nc1cc(Oc2nc(Nc3ccc(N4CCN(C)CC4)cc3OC)ccc2N2CCCC2)ccc1C
3 to 300 nM
C=CC(=O)Nc1cc(Oc2nc(Nc3ccc(N4CCN(C)CC4)cc3OC)ccc2-c2ccccc2)ccc1C
3 to 300 nM
C=CC(=O)Nc1ccc(C)c(Oc2nc(Nc3ccc(N4CCN(C)CC4)cc3OC)ccc2N2CCCC2)c1
300 to 30000 nM

Quickly give me recorded IC50 for C=CC(=O)Nc1cccc(Oc2nc(Nc3ccc(N4CCNCC4)cc3)ccc2Cl)c1
300 to 30000 nM
